Molecular target: h-GABA-A α5β3γ2 (Homo sapiens, UniProt P18507+P31644)
Construct: expressed in transfected cells; host or cells: Xenopus laevis oocytes, micro-injected with subunit RNA
Sequence (P31644 32-462): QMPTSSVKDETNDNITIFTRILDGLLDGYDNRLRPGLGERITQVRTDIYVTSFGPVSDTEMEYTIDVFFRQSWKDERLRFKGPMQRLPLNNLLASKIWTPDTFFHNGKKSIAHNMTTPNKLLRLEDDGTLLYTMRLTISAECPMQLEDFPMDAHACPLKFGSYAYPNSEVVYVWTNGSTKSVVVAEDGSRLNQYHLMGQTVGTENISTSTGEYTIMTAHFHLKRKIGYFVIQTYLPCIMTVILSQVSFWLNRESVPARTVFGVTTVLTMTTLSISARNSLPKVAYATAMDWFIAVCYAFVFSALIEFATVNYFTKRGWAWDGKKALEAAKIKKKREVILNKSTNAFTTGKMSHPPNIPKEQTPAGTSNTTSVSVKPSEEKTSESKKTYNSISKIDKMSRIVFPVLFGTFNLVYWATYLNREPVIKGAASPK
Sequence (P28472 26-473 partner): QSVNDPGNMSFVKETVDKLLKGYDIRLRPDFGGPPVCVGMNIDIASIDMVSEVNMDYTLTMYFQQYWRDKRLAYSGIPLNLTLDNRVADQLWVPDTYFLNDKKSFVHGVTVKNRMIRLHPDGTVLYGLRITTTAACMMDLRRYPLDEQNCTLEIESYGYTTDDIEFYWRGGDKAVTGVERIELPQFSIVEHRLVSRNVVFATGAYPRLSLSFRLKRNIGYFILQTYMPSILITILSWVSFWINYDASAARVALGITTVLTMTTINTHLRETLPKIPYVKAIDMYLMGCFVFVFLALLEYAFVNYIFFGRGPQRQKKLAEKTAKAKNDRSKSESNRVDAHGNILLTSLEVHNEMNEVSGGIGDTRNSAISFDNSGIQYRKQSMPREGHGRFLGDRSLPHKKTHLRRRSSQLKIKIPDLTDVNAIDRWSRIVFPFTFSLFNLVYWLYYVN
Sequence (P18507 40-475): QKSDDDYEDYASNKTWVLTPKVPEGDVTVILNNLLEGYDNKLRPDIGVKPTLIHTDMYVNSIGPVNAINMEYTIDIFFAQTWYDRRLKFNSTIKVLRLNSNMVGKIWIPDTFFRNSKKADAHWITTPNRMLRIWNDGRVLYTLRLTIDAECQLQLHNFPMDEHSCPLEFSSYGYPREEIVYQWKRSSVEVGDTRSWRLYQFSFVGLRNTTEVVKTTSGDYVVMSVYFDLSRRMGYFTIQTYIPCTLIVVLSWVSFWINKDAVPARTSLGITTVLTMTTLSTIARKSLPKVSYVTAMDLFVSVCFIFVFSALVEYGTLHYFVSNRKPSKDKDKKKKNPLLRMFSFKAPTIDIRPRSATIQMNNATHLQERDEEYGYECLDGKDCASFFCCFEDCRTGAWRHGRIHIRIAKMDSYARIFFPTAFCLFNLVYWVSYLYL
Assay: Two-electrode voltage clamp electrophysiology in Xenopus oocytes expressing GABAA receptors (modulation of GABA EC20 current)
Type: cell-based
Conditions: Table 1; % modulation of GABA EC20 = 100*(Fold increase-1)
REPORTED ENDPOINT: Efficacy (GABA) % (%)
// units = %; emit number, no label

Problem: Give recorded Efficacy (GABA) %. Cn1nnc(-c2ccc(C(F)(F)F)cc2F)c1Cn1ncc(N2CC(Oc3ccc(Cl)nc3)C2)cc1=O
Result: 79

Problem: Give recorded Efficacy (GABA) %. Cn1nnc(-c2ccc(Cl)cc2F)c1Cn1ncc(N2CC(Oc3cncc(C(F)(F)F)n3)C2)cc1=O
Result: 58

Problem: Give recorded Efficacy (GABA) %. Cc1nnn(-c2ccc(Cl)cc2F)c1Cn1ncc(N2C[C@@H](C)O[C@@H](C)C2)cc1=O
Result: 164

Problem: Give recorded Efficacy (GABA) %. Cc1ccnn1C1CN(c2cnn(Cc3c(-c4ccc(Cl)cc4F)nnn3C)c(=O)c2)C1
Result: 98

The origin of these recorded values is patent US20230135093A1.
